B1: NCF4 (parent)
chain: FGPDSKSSALACTLPTLPAKVYVG

Variants of: B1
procedureDetails: protein stability index of a GFP-peptide fusion (GPS, HEK-293T) (PSI 1-6); higher = more stable;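 further: lentivirally expressed fusions sorted by FACS into six bins by GFP to DsRed ratio, PSI derived from sequencing read proportions per bin multiplied by bin number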
protocolConditions: c terminus: a fixed tail appended
Task for the reader: assign each of the following variants its reported protein stability index.
Returns: the value as a bare number; no unit string appended.

What value of measured protein stability index is listed for K20Y ?
2.58

Consider next the variant G24T in the same way.
1.9

Now give it for G24P too.
1.68

Could you do the same for V23W , please?
2.07

And the next one, T16E ?
2.4

Input L14Y
1.86

Quick one: A9Q
2.46

Consider next the variant C12D in the same way.
2.95

Then what about the variant L17A ?
2.39

Try P3W next.
1.46

Record: Y22I
2.36

Input S7K
2.35

And then P15N , what is it?
1.85

Same question for T16K please.
2.33

How about P15H ?
1.67

Now the variant P18L
1.65

// same read-out, input: S5P
2.75

And for P15A ?
1.5

Now the variant G24V
1.84

Please give the result for S5N too.
2.65

Repeat for the following variant: A11P
2.17

Now the same for S8F
2.86

Param item: K20S
2.31

Next variant up: S7F
2.9

And what about the variant A9R ?
2.29

Next up: T13M
2.15

Check A19R too.
2.47

And S8V ?
2.22

// same read-out, input: K6A
1.95

Would you mind doing S8Y as well?
4.4

What do you get for P18D ?
2.71

And the next one, A11E ?
2.63

Also P18E , if possible.
2.23

Also need L10R , thanks.
3.23

Next entry: L10Q
2.95

Request: V23F
1.78

Input V21K
3.09

Another: K20M
1.64

Same read-out for Y22N ?
2.94

Could you do the same for K20F , please?
2.48

// same read-out, input: D4N
1.84

For P15S then?
1.95

Also check G2L
2.06

// next record G24N
1.85

What about this variant? D4Y
1.8

Likewise for P3M ?
2.01

Another variant to check: L14E
2.76

Record: P15Q
1.89

Request: L10Y
1.86

Okay, and S5R ?
2.2

Repeat for the following variant: P15M
1.86

Input L17G
2.59

Then this variant: L10K
3.29

Record: S7M
2.25

And what about the variant L14N ?
2.32

Then what about the variant K20N ?
2.49

Then what about the variant P18W ?
2.77

Similarly, L10C ?
2.69

Same read-out for T13C ?
1.96

Now the same for A11G
2.22

Okay, and L17T ?
2.43

Next variant: F1R
2.54

// next record F1V
2.92

Would you mind doing C12K as well?
2.95

Note, next up: S7P
1.97

Try the variant S7Q
3.06

Also, V23I please.
2.29

Do the same for A11I please
2.24

# iterate: V21W
2.63

Entry to check: S8C
2.44

Also L17C , if possible.
2.14

Next: L10I
2.12

Try the variant L14V
2.11

What about D4E ?
2.05

Now the variant L10M
2.69

Query T16L next
1.73

Can you check Y22Q next?
3.12

Try the variant T13V
1.79

Can you handle T16Q next?
2.2

Now the variant G2D
3.1

How about V23Y ?
2.39

// same read-out, input: S5I
2.41

Entry to check: A9G
1.67

How about this variant: P15I
3.1

Do the same for F1I please
2.64

Now the same for A19W
1.26

Proceed to P3L
2.17

Then this variant: K6F
1.53

Next variant up: A19F
2.35

// next record G24H
2.08

Same thing, different variant: D4S
2.04
